# log10 of IC50 measurements, system: EGFR (Homo sapiens, UniProt P00533)
# Sequence (P00533 25-1210): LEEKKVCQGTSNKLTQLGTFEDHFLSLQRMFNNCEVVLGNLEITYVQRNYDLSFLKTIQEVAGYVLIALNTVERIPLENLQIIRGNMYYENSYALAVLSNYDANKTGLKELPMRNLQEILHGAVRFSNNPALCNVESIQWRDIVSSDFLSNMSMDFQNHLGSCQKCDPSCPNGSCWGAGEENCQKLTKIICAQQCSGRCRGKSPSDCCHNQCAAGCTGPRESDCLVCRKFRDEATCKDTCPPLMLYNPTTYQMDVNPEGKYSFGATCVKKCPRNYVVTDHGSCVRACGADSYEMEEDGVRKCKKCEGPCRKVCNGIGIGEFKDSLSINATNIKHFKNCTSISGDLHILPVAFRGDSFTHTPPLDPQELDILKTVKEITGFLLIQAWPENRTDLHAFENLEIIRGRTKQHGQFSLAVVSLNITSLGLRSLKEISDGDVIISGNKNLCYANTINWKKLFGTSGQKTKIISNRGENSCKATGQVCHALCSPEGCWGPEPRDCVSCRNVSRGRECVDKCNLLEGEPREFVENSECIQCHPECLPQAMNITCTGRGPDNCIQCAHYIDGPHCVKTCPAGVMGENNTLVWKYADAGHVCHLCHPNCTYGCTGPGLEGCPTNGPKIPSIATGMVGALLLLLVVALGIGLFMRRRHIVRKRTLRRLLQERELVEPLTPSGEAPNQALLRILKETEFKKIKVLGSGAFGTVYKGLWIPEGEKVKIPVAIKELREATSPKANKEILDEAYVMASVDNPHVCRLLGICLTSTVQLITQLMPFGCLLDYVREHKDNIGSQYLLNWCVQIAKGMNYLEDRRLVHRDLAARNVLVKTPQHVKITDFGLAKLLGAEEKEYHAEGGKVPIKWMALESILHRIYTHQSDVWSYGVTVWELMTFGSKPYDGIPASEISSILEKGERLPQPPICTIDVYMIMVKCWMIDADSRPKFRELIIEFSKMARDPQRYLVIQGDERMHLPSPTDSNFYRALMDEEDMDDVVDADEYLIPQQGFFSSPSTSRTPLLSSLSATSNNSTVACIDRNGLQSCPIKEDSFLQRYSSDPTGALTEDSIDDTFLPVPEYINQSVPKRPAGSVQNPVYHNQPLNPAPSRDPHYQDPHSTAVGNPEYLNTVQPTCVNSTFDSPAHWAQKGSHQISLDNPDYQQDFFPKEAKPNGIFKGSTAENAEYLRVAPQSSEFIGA
Heads up, the numbers here are log10 of IC50 in µM units.

Some entries whose results are on file:
>  <Molecule>
COc1ccc(Nc2nc(-c3ccc4c(CN5CC(N)C5)c[nH]c4c3)cnc2C(N)=O)cc1OC

>  <Experimental target>
EGFR (Homo sapiens, UniProt P00533)

>  <log10 of IC50>
1.40

$$$$
>  <Molecule>
COc1ccc(Nc2nc(-c3ccc4c(CN5CC(O)C5)cn(CO)c4c3)cn3ccnc23)cc1OC [Compound S970D]

>  <Experimental target>
EGFR (Homo sapiens, UniProt P00533)

>  <log10 of IC50>
-0.19

$$$$
>  <Molecule>
COc1cc(Nc2ncc(F)c(Nc3ccc4c(n3)N(COP(=O)(O)O)C(=O)C(C)(C)O4)n2)cc(OC)c1OC

>  <Experimental target>
EGFR (Homo sapiens, UniProt P00533)

>  <log10 of IC50>
-0.47

$$$$
>  <Molecule>
CCn1c(=O)c(-c2cc(NC(=O)Nc3ccccc3)c(F)cc2Br)cc2cnc(NC)cc21

>  <Experimental target>
EGFR (Homo sapiens, UniProt P00533)

>  <log10 of IC50>
1.00

$$$$
>  <Molecule>
NCCNc1ncc(C(N)=O)c(Nc2cccc(C(F)(F)F)c2)n1

>  <Experimental target>
EGFR (Homo sapiens, UniProt P00533)

>  <log10 of IC50>
1.43

$$$$

Problem: Look up log10 of IC50 for this molecule: "Cn1cc(-c2cc3c(N4CCN(c5ncc([C@@](C)(N)c6ccc(F)cc6)cn5)CC4)ncnn3c2)cn1"
Solution: 0.94

Problem: Please report the recorded log10 of IC50 for "COc1ccc(Nc2nc(-c3ccc4c(CCCO)cn(C)c4c3)cnc2C(N)=O)cc1OC" .
Solution: 0.63

Problem: Value lookup for log10 of IC50; key = "Nc1cncc(-c2cn3ccnc3c(Nc3ccc(N4CCN(C5COC5)CC4)cc3)n2)n1"
Solution: 0.63

====

# Procedure text: LogP
# Assay type: physicochemical
Observation type: LogP
Enter a number only.

Problem: Recorded LogP of "COc1ccc(Nc2nc(-c3ccc4c(CN5CC(N)C5)c[nH]c4c3)cnc2C(N)=O)cc1OC" , please.
Solution: 1.04

Problem: // query LogP value for entry COc1ccc(Nc2nc(-c3ccc4c(CN5CC(O)C5)cn(CO)c4c3)cn3ccnc23)cc1OC [Compound S970D]
Solution: 2.28

Problem: Need LogP, item "COc1ccc(Nc2nc(-c3ccc4c(CN5CC(O)C5)c[nH]c4c3)cnc2C(N)=O)cc1OC"
Solution: 1.42

Problem: Fill in the blank: the reported LogP of "COc1ccc(Nc2nc(-c3ccc4c(CN5CC(C(=O)O)C5)c[nH]c4c3)cnc2C(N)=O)cc1OC" is ____.
Solution: 1.54

Problem: Which value of LogP has been reported for "COc1ccc(Nc2nc(-c3ccc4c(CN5CC(O)C5)c[nH]c4c3)cn3ccnc23)cc1OC" in the records?
Solution: 2.29

Problem: Recorded LogP of "COc1ccc(Nc2nc(-c3ccc4c(CCCO)cn(C)c4c3)cnc2C(N)=O)cc1OC" , please.
Solution: 2.63

====

# Experimental target: Syk (Homo sapiens, UniProt P43405)
# Procedure text: ADP-Glo kinase inhibition assay, Syk
# Test settings: read-out: IC50 Syk; ADP-Glo
Observation type: IC50 (µM)
Write the number in µM without appending the unit.

A selection of reference data follows.
>  <Smiles record>
Cc1nn(-c2ccnc(Nc3ccc(-c4csc5c(=O)cc(N6CCOCC6)oc45)cc3)n2)cc1CN1CCC1

>  <IC50 [µM]>
0.0107

$$$$
>  <Smiles record>
Cc1cc(Nc2nccc(C)n2)cc(-c2cnc([C@@]3(O)CC[C@H](C(=O)O)C(C)(C)C3)s2)c1

>  <IC50 [µM]>
0.001

$$$$
>  <Smiles record>
Cc1cc(Nc2nc(N[C@@H]3CCOC[C@@H]3N)nnc2C(N)=O)cc2cn(C(C)(C)C)nc12

>  <IC50 [µM]>
0.00037

$$$$
>  <Smiles record>
NCCNc1ncc(C(N)=O)c(Nc2cccc(C(F)(F)F)c2)n1

>  <IC50 [µM]>
0.0703

$$$$
>  <Smiles record>
CCS(=O)(=O)N1CCN(c2ccc(Nc3ncc(C(N)=O)c(NC4CC4)n3)cc2)CC1

>  <IC50 [µM]>
0.032

$$$$

Problem: Reported IC50, compound "NC(=O)c1nnc(N[C@@H]2CCCC[C@@H]2N)nc1Nc1cccc2cc[nH]c12" : ____
Solution: 0.031

====

# Experimental target: IGF1R (Homo sapiens, UniProt P08069)
# Sequence (P08069 31-1367): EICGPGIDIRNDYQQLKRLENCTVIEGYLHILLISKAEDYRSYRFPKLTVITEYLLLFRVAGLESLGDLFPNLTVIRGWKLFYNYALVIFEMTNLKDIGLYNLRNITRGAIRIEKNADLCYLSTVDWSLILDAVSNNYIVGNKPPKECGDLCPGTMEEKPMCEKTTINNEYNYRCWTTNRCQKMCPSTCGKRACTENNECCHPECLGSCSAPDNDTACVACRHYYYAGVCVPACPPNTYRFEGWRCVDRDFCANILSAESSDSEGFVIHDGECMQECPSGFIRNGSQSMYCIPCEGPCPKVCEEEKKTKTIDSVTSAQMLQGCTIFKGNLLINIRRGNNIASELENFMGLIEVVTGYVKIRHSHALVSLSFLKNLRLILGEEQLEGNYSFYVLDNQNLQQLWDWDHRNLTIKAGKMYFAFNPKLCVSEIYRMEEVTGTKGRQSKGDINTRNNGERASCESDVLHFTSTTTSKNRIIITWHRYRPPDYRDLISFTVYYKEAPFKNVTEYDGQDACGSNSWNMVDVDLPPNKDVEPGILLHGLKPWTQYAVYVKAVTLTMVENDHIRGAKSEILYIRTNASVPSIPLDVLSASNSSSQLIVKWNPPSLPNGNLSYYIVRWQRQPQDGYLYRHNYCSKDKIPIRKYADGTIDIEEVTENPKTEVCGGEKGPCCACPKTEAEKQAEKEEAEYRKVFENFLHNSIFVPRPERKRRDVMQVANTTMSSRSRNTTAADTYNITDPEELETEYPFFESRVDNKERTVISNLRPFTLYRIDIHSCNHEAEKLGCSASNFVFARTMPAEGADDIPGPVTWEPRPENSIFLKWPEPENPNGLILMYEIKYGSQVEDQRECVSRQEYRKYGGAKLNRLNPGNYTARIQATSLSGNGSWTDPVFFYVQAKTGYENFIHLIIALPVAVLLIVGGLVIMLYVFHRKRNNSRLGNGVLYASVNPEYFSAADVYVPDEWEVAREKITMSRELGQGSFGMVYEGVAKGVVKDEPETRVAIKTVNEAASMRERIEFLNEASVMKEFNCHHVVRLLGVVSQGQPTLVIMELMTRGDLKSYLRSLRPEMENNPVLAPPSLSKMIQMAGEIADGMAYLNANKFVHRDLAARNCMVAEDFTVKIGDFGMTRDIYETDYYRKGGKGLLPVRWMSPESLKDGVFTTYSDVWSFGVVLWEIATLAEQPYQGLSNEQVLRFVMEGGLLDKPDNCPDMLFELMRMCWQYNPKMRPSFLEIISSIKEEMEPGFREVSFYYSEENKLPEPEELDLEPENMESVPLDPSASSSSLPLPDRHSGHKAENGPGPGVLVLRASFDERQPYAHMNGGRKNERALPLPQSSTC
# Procedure text: ADP-Glo kinase inhibition assay, IGF1R
# Test settings: read-out: IC50 IGF1R; ADP-Glo
Observation type: IC50 (µM)
Hi! Could you send only the number? It should be in µM, unit omitted.

>  <Compound>
NCCNc1ncc(C(N)=O)c(Nc2cccc(C(F)(F)F)c2)n1 [Syk II]

>  <IC50 / µM>
13.5

$$$$

API: the following record is the query input.
Problem: Find the recorded IC50 belonging to Oc1cc(O)cc(/C=C/c2ccc(O)c(O)c2)c1 [Piceatannal] and report it.
Solution: 21.5

====

# Experimental target: Syk (Homo sapiens)
# Procedure text: ADP-Glo kinase inhibition assay, Syk
Observation type: pIC50
Please keep in mind that pIC50 is minus log10 of the molar concentration; only the number is needed.

Use these answered entries as a reference point.
>  <Compound>
Cn1cc(-c2cc3c(N4CCN(c5ncc([C@@](C)(N)c6ccc(F)cc6)cn5)CC4)ncnn3c2)cn1

>  <pIC50>
6.55

$$$$
>  <Compound>
O=C(Nc1cnn2ccc(N3CCC[C@@H]3c3cc(F)ccc3F)nc12)N1CC[C@H](O)C1

>  <pIC50>
4.63

$$$$
>  <Compound>
COc1ccc(Nc2nc(-c3ccc4c(CN5CC(O)C5)c[nH]c4c3)cnc2C(N)=O)cc1OC

>  <pIC50>
8.66

$$$$

Problem: Give pIC50 (Syk (Homo sapiens)) of the following compound: "COc1ccc(Nc2nc(-c3ccc4c(CCCN)cn(C)c4c3)cnc2C(N)=O)cc1OC"
Solution: 6.17

Problem: Under Syk (Homo sapiens): pIC50 value of "Cc1cc(Nc2ncnc3ccc(NC4=NC(C)(C)CO4)cc23)ccc1Oc1ccn2ncnc2c1" ?
Solution: 5.31

Problem: Notebook entry, Syk (Homo sapiens) assay: pIC50 of "COc1ccc(Nc2nc(-c3ccc4c(CN5CC(O)C5)c[nH]c4c3)cn3ccnc23)cc1OC" = ?
Solution: 6.75

Problem: Notebook entry, Syk (Homo sapiens) assay: pIC50 of COc1ccc(Nc2nc(-c3ccc4c(CN5CC(O)C5)cn(CO)c4c3)cn3ccnc23)cc1OC [Compound S970D] = ?
Solution: 7.10

====

# HGFR (Homo sapiens, UniProt P08581): IC50 values follow
# Sequence (P08581 25-1390): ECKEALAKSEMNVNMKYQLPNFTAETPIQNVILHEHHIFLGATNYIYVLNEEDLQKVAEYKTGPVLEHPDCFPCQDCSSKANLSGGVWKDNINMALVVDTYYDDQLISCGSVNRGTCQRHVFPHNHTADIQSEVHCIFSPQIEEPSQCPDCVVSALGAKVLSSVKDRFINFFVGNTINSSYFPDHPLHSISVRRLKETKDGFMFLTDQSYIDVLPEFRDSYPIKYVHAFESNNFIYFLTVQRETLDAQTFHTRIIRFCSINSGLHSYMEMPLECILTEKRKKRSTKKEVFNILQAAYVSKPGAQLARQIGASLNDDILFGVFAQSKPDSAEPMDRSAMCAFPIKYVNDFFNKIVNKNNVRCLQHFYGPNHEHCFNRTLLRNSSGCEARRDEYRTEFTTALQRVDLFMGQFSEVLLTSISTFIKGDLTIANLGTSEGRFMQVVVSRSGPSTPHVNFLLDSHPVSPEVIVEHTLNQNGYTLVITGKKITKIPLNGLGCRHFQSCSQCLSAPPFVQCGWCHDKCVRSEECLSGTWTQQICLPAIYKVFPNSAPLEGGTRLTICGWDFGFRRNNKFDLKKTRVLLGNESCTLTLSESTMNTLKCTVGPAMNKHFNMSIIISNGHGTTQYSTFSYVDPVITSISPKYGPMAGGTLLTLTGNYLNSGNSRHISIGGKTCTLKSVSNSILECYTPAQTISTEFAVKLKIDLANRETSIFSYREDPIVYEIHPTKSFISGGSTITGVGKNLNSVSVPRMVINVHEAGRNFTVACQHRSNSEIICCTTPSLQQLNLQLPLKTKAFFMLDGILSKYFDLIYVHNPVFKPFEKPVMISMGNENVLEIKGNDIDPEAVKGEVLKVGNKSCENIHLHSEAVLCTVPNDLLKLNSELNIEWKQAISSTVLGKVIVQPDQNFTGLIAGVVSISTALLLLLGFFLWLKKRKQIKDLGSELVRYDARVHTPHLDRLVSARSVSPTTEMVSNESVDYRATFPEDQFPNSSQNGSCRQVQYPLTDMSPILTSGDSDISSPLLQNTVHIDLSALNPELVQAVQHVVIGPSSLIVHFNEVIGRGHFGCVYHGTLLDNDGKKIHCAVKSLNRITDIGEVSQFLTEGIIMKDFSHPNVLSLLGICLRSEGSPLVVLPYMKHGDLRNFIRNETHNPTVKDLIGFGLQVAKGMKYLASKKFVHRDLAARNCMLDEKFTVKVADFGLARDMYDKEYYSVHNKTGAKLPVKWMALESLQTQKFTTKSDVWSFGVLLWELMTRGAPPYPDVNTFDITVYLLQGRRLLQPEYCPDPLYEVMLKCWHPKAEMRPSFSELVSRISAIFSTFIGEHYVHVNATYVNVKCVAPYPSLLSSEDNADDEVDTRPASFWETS
Form entry: value (µM) — number only.

>  <Smiles record>
COc1cc(Nc2ncc(F)c(Nc3ccc4c(n3)N(COP(=O)(O)O)C(=O)C(C)(C)O4)n2)cc(OC)c1OC

>  <Experimental target>
HGFR (Homo sapiens, UniProt P08581)

>  <Observation type>
IC50

>  <Val>
1.57

$$$$
>  <Smiles record>
CCn1c(=O)c(-c2cc(NC(=O)Nc3ccccc3)c(F)cc2Br)cc2cnc(NC)cc21

>  <Experimental target>
HGFR (Homo sapiens, UniProt P08581)

>  <Observation type>
IC50

>  <Val>
3.02

$$$$
>  <Smiles record>
CCc1cc2c(cc1N1CCC(N3CCOCC3)CC1)C(C)(C)c1[nH]c3cc(C#N)ccc3c1C2=O

>  <Experimental target>
HGFR (Homo sapiens, UniProt P08581)

>  <Observation type>
IC50

>  <Val>
1.03

$$$$
>  <Smiles record>
Cc1cc(Nc2ncnc3ccc(NC4=NC(C)(C)CO4)cc23)ccc1Oc1ccn2ncnc2c1

>  <Experimental target>
HGFR (Homo sapiens, UniProt P08581)

>  <Observation type>
IC50

>  <Val>
11.1

$$$$

With those in mind, consider the next molecule.
Problem: Hi! What's the reported IC50 for "Cn1cc(-c2cc3c(N4CCN(c5ncc([C@@](C)(N)c6ccc(F)cc6)cn5)CC4)ncnn3c2)cn1" on HGFR (Homo sapiens, UniProt P08581)?
Solution: 25

====

# Experimental target: FGFR3 (Homo sapiens)
# Sequence (P22607 23-806): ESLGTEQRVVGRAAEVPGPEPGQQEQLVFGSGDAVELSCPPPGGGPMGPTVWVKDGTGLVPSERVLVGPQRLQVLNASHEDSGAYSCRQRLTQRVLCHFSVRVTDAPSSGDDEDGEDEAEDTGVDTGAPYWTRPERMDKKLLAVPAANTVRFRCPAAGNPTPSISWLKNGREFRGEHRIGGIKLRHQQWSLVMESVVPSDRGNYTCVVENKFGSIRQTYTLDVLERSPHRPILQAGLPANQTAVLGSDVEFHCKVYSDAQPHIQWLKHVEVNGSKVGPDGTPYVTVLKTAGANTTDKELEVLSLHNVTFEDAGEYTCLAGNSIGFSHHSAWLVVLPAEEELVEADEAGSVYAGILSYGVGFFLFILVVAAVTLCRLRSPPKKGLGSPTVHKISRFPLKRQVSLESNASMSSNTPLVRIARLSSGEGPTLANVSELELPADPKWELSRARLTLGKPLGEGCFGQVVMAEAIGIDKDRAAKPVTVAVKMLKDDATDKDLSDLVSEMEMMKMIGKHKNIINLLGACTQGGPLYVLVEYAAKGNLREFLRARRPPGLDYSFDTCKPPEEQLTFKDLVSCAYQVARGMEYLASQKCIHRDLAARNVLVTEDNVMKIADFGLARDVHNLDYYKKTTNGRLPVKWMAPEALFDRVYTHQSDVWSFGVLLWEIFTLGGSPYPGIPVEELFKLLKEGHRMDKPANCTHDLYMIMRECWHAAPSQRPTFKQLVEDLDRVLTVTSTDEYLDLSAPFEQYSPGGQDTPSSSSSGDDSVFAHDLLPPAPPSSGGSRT
# Procedure text: ADP-Glo kinase inhibition assay, FGFR3
pIC50: −log10 of the molar value.
Kind request: treat 6 as inclusive, so pIC50 at 6 or higher is 1, anything lower is 0.

Sample answers from the record:
>  <Smiles record>
COc1ccc(Nc2nc(-c3ccc4c(CCCO)cn(C)c4c3)cnc2C(N)=O)cc1OC

>  <Assigned category>
0

$$$$
>  <Smiles record>
Nc1cncc(-c2cn3ccnc3c(Nc3ccc(N4CCN(C5COC5)CC4)cc3)n2)n1

>  <Assigned category>
0

$$$$
>  <Smiles record>
COc1ccc(Nc2nc(-c3ccc4c(CN5CC(N)C5)c[nH]c4c3)cnc2C(N)=O)cc1OC

>  <Assigned category>
0

$$$$

Problem: Please tell me: is the compound "CCn1c(=O)c(-c2cc(NC(=O)Nc3ccccc3)c(F)cc2Br)cc2cnc(NC)cc21" at or over 6 in terms of pIC50?
Solution: 1

Problem: Test whether the compound "CCc1cc2c(cc1N1CCC(N3CCOCC3)CC1)C(C)(C)c1[nH]c3cc(C#N)ccc3c1C2=O" records pIC50 of 6 or higher.
Solution: 0

Problem: Is pIC50 at least 6? Consider "CN1CCN(c2ccc(C(=O)Nc3n[nH]c4ccc(Cc5cc(F)cc(F)c5)cc34)c(NC3CCOCC3)c2)CC1"
Solution: 1
